EXPERIMENTAL SYSTEM: T1, cynomolgus monkey serum albumin (cynomolgus monkey, UniProt A2V9Z4 25-608)
T1 construct: also called cyno albumin; CSA
ASSAY NAME: SPR (Biacore 3000), cyno albumin on chip, Fc-ABDEG fusion, pH 5.5
Threshold 30 RU: R0 pH 5.5 strictly smaller gives 1 (yes), otherwise 0 (no).

For this binder, is R0 pH 5.5 lower than 30 RU? 11C03 CDR2-V12 fused at the C-terminus of Fc-ABDEG (Fc fusion, not shown: a dimerising Fc or GST; small tags and cut ends) QLQVVESGGGLVQAGGSLRLSCAASERTFVAYPMGWFRQAPEKEREFVAGISWFAGATTDAADSVEGRFTISRDNAKNTAYLQMNNLKPEDTAVYYCAISHQLPGGRPGRDMDSYSYWGHGTQVTVSS
1 (yes)

# iterate: 11C03 CDR1-V2 fused at the C-terminus of Fc-ABDEG (Fc fusion, not shown: a dimerising Fc or GST; small tags and cut ends) QLQVVESGGGLVQAGGSLRLSCAASERTFVAAPMGWFRQAPEKEREFVAGISWFAGATTDYADSVEGRFTISRDNAKNTAYLQMNNLKPEDTAVYYCAISHQLPGGRPGRDMDSYSYWGHGTQVTVSS
0 (no)

# iterate: 11C03 CDR1-V3 fused at the C-terminus of Fc-ABDEG (Fc fusion, not shown: a dimerising Fc or GST; small tags and cut ends) QLQVVESGGGLVQAGGSLRLSCAASERTFVAYAMGWFRQAPEKEREFVAGISWFAGATTDYADSVEGRFTISRDNAKNTAYLQMNNLKPEDTAVYYCAISHQLPGGRPGRDMDSYSYWGHGTQVTVSS
0 (no)

# iterate: 11C03 CDR2-V3 fused at the C-terminus of Fc-ABDEG (Fc fusion, not shown: a dimerising Fc or GST; small tags and cut ends) QLQVVESGGGLVQAGGSLRLSCAASERTFVAYPMGWFRQAPEKEREFVAGIAWFAGATTDYADSVEGRFTISRDNAKNTAYLQMNNLKPEDTAVYYCAISHQLPGGRPGRDMDSYSYWGHGTQVTVSS
0 (no)

# iterate: 11C03 CDR2-V7 fused at the C-terminus of Fc-ABDEG (Fc fusion, not shown: a dimerising Fc or GST; small tags and cut ends) QLQVVESGGGLVQAGGSLRLSCAASERTFVAYPMGWFRQAPEKEREFVAGISWFAAATTDYADSVEGRFTISRDNAKNTAYLQMNNLKPEDTAVYYCAISHQLPGGRPGRDMDSYSYWGHGTQVTVSS
1 (yes)

Continuing:
For this binder, is R0 pH 5.5 lower than 30 RU? 11C03 CDR2-V10 fused at the C-terminus of Fc-ABDEG (Fc fusion, not shown: a dimerising Fc or GST; small tags and cut ends) QLQVVESGGGLVQAGGSLRLSCAASERTFVAYPMGWFRQAPEKEREFVAGISWFAGATADYADSVEGRFTISRDNAKNTAYLQMNNLKPEDTAVYYCAISHQLPGGRPGRDMDSYSYWGHGTQVTVSS
0 (no)

# iterate: 11C03 CDR2-V5 fused at the C-terminus of Fc-ABDEG (Fc fusion, not shown: a dimerising Fc or GST; small tags and cut ends) QLQVVESGGGLVQAGGSLRLSCAASERTFVAYPMGWFRQAPEKEREFVAGISWAAGATTDYADSVEGRFTISRDNAKNTAYLQMNNLKPEDTAVYYCAISHQLPGGRPGRDMDSYSYWGHGTQVTVSS
1 (yes)

# iterate: 11C03 parental fused at the C-terminus of Fc-ABDEG (Fc fusion, not shown: a dimerising Fc or GST; small tags and cut ends) QLQVVESGGGLVQAGGSLRLSCAASERTFVAYPMGWFRQAPEKEREFVAGISWFAGATTDYADSVEGRFTISRDNAKNTAYLQMNNLKPEDTAVYYCAISHQLPGGRPGRDMDSYSYWGHGTQVTVSS
0 (no)
